Field: melting point. Provide a value for each of the compounds that follow.

{"columns": ["record smiles", "melting point"],
 "data": [
  ["Cc1c(N[C@H]2CC[C@H](N)CC2)nc2ccnn2c1Nc1cccc(CO)c1", "97 to 100 °C"],
  ["Cc1nn2c(Nc3ccc(F)c(Cl)c3)cc(N[C@H]3CC[C@H](N)CC3)nc2c1Br", "224 to 226 °C (dec.)"],
  ["CCc1c(N[C@H]2CC[C@H](N)CC2)nc2ccnn2c1NCc1ccccc1Cl", "63 to 65 °C"]
]}

Okay, here is my list. What is melting point for each of these?
1. Cc1c(N[C@H]2CC[C@H](N)CC2)nc2ccnn2c1Nc1ccc(-n2ccnc2)cc1
2. CCc1c(N[C@H]2CC[C@H](N)CC2)nc2ccnn2c1Nc1ccc(OCc2ccccc2)cc1

Result string:
1: 210 to 215 °C; 2: 120 to 122 °C

---

target: MAPKAP-K2 (Homo sapiens, UniProt P49137); assay: MAPKAP-K2 enzyme activity inhibition (33P-ATP filter plate kinase assay); assay type: biochemical; conditions: MAPKAP-K2 inhibitory activity; assays conducted at typically 1-100 μM; also: key: +: active; ++: more active; +++: very active
Sequence (P49137 whole entry): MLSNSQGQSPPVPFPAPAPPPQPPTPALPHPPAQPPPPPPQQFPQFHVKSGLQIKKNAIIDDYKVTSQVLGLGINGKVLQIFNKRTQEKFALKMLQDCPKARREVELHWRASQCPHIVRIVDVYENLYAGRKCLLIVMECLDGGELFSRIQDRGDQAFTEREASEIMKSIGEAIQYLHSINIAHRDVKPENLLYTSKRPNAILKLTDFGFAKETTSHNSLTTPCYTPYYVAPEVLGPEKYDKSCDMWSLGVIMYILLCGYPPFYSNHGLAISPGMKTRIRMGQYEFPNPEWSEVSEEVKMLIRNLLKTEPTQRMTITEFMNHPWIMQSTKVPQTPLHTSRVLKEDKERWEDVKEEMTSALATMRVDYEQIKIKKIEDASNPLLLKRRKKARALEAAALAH
measured property: activity (efficacy against MAPKAP-K2)

See these solved cases before continuing.
{"columns": ["molecule", "target under test", "measured property", "result"],
 "data": [
  ["CCOc1ccc(Nc2c(OC)c(NC3CCCNC3)nc3ccnn23)cc1 (stereo not shown)", "MAPKAP-K2 (Homo sapiens, UniProt P49137)", "activity (efficacy against MAPKAP-K2)", "+++"],
  ["Cc1c(N[C@H]2CC[C@H](N)CC2)nc2ccnn2c1Nc1ccc(-c2cn[nH]c2)cc1", "MAPKAP-K2 (Homo sapiens, UniProt P49137)", "activity (efficacy against MAPKAP-K2)", "+++"],
  ["C=C(C)CNc1c(CC)c(N[C@H]2CC[C@H](N)CC2)nc2ccnn12", "MAPKAP-K2 (Homo sapiens, UniProt P49137)", "activity (efficacy against MAPKAP-K2)", "++"],
  ["Cc1c(N[C@H]2CC[C@H](N)CC2)nc2ccnn2c1Nc1ccc2ncsc2c1", "MAPKAP-K2 (Homo sapiens, UniProt P49137)", "activity (efficacy against MAPKAP-K2)", "+++"],
  ["Cc1c(N[C@H]2CC[C@H](N)CC2)nc2ccnn2c1Nc1ccc(OC2CCCC2)cc1", "MAPKAP-K2 (Homo sapiens, UniProt P49137)", "activity (efficacy against MAPKAP-K2)", "+++"],
  ["Cc1c(N[C@H]2CC[C@H](N)CC2)nc2ccnn2c1Nc1ccc(OCc2ccccc2Cl)cc1", "MAPKAP-K2 (Homo sapiens, UniProt P49137)", "activity (efficacy against MAPKAP-K2)", "+++"],
  ["Cc1c(N[C@H]2CC[C@H](N)CC2)nc2ccnn2c1Nc1ccc(-c2ccc(C#N)cc2)cc1", "MAPKAP-K2 (Homo sapiens, UniProt P49137)", "activity (efficacy against MAPKAP-K2)", "+++"],
  ["Cc1csc(-c2ccc(Nc3c(C)c(N[C@H]4CC[C@H](N)CC4)nc4ccnn34)cc2)c1", "MAPKAP-K2 (Homo sapiens, UniProt P49137)", "activity (efficacy against MAPKAP-K2)", "+++"]
]}

Quick batch: activity (efficacy against MAPKAP-K2) for everything below.
1. CCc1c(N[C@H]2CC[C@H](N)CC2)nc2ccnn2c1Nc1cccc(I)c1
2. CC(=O)c1ccc(-c2ccc(Nc3c(C)c(N[C@H]4CCCNC4)nc4ccnn34)cc2)s1
3. CCOC(=O)c1cccc(Nc2c(C)c(N[C@H]3CC[C@H](N)CC3)nc3ccnn23)c1
4. CCOc1ccc(Nc2c(C)c(N[C@H]3CC[C@H](N)CC3)nc3c(NS(C)(=O)=O)cnn23)cc1
5. Cc1c(N[C@H]2CC[C@H](N)CC2)nc2ccnn2c1Nc1ccc(-c2cccc(F)c2)cc1
6. CCOc1ccc(Nc2c(C)c(N[C@@H]3CN[C@@H](C(=O)O)C3)nc3ccnn23)cc1
7. Cc1c(N[C@H]2CC[C@H](N)CC2)nc2ccnn2c1Nc1ccc(-c2cncnc2)cc1
8. CCOc1ccc(Nc2c(C)c(N[C@H]3CC[C@H](N)CC3)nc3c(NCc4ccccc4)cnn23)cc1

Result string:
1. +++
2. +++
3. +++
4. +
5. +++
6. ++
7. +++
8. +
